Biological target: photosystem II (PSII) D1 protein (Chlamydomonas reinhardtii, UniProt P07753, F211S/P162S)
Construct: full-length D1 from intronless psbA in the chloroplast, assembled in native PSII (with D2 and other subunits) in living algal cells; D1 mutants by ep-PCR of Ala153-Ala294 region and biolistic transformation of Del1
Assay: chlorophyll a fluorescence induction (OJIP), inhibition of 1-VJ (QA to QB electron transfer) in living algal cells
Conditions: read-out: Atrazine / I50×10^-7 M / (±SE)
Assay Endpoint: IC50 (µM)
Answers are plain numbers, in µM.

For reference, reported IC50 for CCNc1nc(Cl)nc(NC(C)C)n1 stands at 1.97
